Cited source for all entries: the emibetuzumab library of Makowski et al. (2022)

B1: VH:VL chains; a variant is named by its letters at X, in order (parent)
chain 1: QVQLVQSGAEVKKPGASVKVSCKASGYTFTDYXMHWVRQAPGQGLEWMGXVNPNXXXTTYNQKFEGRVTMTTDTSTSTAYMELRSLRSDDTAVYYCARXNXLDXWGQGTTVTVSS
chain 2: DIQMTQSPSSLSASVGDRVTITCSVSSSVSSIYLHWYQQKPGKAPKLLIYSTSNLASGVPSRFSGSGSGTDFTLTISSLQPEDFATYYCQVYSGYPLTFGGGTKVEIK

Variants of: B1
Assay: yeast display scFab, FACS + sequencing

variant string: SEARSDVY
non-specific binding call: no binding
//
variant string: YRRRGSGY
non-specific binding call: binds
//
variant string: YRAGGFVA
non-specific binding call: binds
//
variant string: VETEGDWY
non-specific binding call: no binding
//
variant string: YRTRAAWD
non-specific binding call: binds
//
variant string: SKGRSDGA
non-specific binding call: no binding
//
variant string: DKREADVA
non-specific binding call: no binding
//
variant string: YKRGSSGA
non-specific binding call: binds
//
variant string: SRGKGSGV
non-specific binding call: binds
//
variant string: DRKGGDWS
non-specific binding call: binds
//
variant string: VRGRGYAA
non-specific binding call: binds
//
variant string: YKEGGAGD
non-specific binding call: no binding
//
variant string: YRTGDSSA
non-specific binding call: no binding
//
variant string: DGGGNDLA chain 1 R87K
non-specific binding call: no binding
//
variant string: YRKGGSAA
non-specific binding call: binds
//
variant string: AARADAVV
non-specific binding call: no binding
//
variant string: DRRRGALD
non-specific binding call: binds
//
variant string: DRAGDSLV
non-specific binding call: no binding
//
variant string: YRRGSSLV
non-specific binding call: binds
//
variant string: YRAAGAGS
non-specific binding call: binds
//
variant string: YRGRASLY
non-specific binding call: binds
//
variant string: YRGRSALA
non-specific binding call: binds
//
variant string: VTTKSSVA
non-specific binding call: no binding
//
variant string: YTERAAWA
non-specific binding call: no binding
//
variant string: FKTKDSVV
non-specific binding call: binds
//
variant string: YKRRDAWV
non-specific binding call: binds
//
variant string: VEARGDWV
non-specific binding call: no binding
//
variant string: FRGTSFGD chain 1 T58I
non-specific binding call: binds
//
variant string: YKRGSSWD
non-specific binding call: binds
//
variant string: DARGGSSV
non-specific binding call: no binding
//
variant string: AETKGAVA
non-specific binding call: no binding
//
variant string: SRGRGAWD
non-specific binding call: binds
//
variant string: DAGKGAGD
non-specific binding call: no binding
//
variant string: FATEGASA
non-specific binding call: no binding
//
variant string: YRRRGVWA
non-specific binding call: binds
//
variant string: DEGKAAGS
non-specific binding call: no binding
//
variant string: SRGRGVLV
non-specific binding call: binds
//
variant string: YRRGSSVV
non-specific binding call: binds
//
variant string: YAGKTSAD
non-specific binding call: binds
//
variant string: YAGRAAWD
non-specific binding call: binds
//
variant string: FRKRGSVF
non-specific binding call: binds
//
variant string: YKGKGSVA
non-specific binding call: binds
//
variant string: VKAGGDVY
non-specific binding call: no binding
//
variant string: DRRGDASD
non-specific binding call: no binding
//
variant string: VRKGSSGD
non-specific binding call: binds
//
variant string: YRGRAAVS
non-specific binding call: binds
